The reported numbers originate from patent US20200399385A1.

Molecular target: T1, his-tagged soluble human OX40 (huOX40-6xhis) (human, UniProt P43489 29-214)
T1 construct: made in-house; also called Human-OX40-6XHIS; hOX40; not shown: hexahistidine tag
T1 sequence: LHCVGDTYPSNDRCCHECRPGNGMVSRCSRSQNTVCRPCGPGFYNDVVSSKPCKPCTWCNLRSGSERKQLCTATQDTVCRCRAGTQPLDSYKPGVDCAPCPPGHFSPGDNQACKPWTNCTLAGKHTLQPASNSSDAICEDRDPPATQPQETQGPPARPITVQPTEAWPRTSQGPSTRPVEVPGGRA
Test: SPR, mAb captured on anti-human CH1, OX40-6XHIS analyte, 1:1 fit
Method: The affinity of several OX40 antibodies for soluble human OX40 was tested by SPR analysis. […] Human-OX40-6XHIS antigen in either a single concentration of 400 nM or a 1:2 serial dilution from 400 nM was used. Experiments were carried out on BIACORE® T200 or BIACORE® 3000 SPR instruments. Data was fit to a 1:1 model.
Quick reference: kon of the listed items.

binder	kon
23H3 (antibody, V domains shown, also called 23H3.C6) VH: EVQLVQSGGGLVHPGGSLRLSCAGSGFTFSNYAMYWVRQAPGKGLEWVSAIGIGGDTFYTDSVKGRFTISRDNAKNSLSLQMNSLRAEDMAVYYCARMGTGYFFDYWGQGTLVTVSS VL: EIVLTQSPATLSLSPGERATLSCRASQSVSSYLAWYQQKPGQAPRLLIYDASNRATGIPARFSGSGSGTDFTLTISSLEPEDFAVYYCQQRSNWPLTFGPGTKVDIK	110000 M⁻¹ s⁻¹
20C1 (antibody, V domains shown, also called 20C1.F2.D1; 20C1.F2) VH: EAQLVQSGGGLVHPGGSLRLSCADSGFTFSSYAMYWVRQAPGKGLEWVSAIDTDGGTFYADSVRGRFTISRDNAKNSLYLQMNGLRAEDMAVYFCARLGEGYFFDYWGQGTLVTVSS VL: EIVLTQSPATLSLSPGERATLSCRASQSVSSYLAWYQQKPGQAPRLLIYDASNRATGIPARFSGSGSGTDFTLTISSLEPEDFAVYYCQQRSNWPPTFGGGTKVEIK	64800 M⁻¹ s⁻¹
20B3 (antibody, V domains shown, also called 20B3.G12.A2; 20B3.G2) VH: EVQLVESGGGLVQPGGSLRLSCAASGFTFSSYDMHWVRQTTGKGLEWVSVIGTAGDTYYPGSVKGRFTISRENAKNSLYLQMNSLRAGDTAVYYCARGGMGNYFDYWGQGTLVTVSS VL: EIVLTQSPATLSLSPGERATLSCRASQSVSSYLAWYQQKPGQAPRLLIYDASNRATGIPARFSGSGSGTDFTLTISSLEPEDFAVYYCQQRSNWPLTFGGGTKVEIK	54200 M⁻¹ s⁻¹
6E1 (antibody, V domains shown, also called 6E1.A12.A2; 6E1.A12) VH: QVQLVESGGGVVQPGRSLRLSCAASGFTFSSFAMHWVRQAPGKGLEWVTVISYDGSIKYYTDSVKGRFTFSRDNSKNTLYLQMNSLRAEDTAVYYCTRDGNYGSARYFQHWGQGTLVTVSS VL: EIVLTQSPATLSLSPGERATLSCRASQSVSSYLAWYQQKPGQAPRLLIYDASNRATGIPARFSGSGSGTDFTLTISSLEPEDFAVYYCQQRSNWPYTFGQGTKLEIK	128000 M⁻¹ s⁻¹
